These records show IC50 for Tankyrase 1 (TNKS1) (Homo sapiens).
# output: numeric value plus its unit

Some solved entries appear below for comparison.
> print(dat)
                                   molecule  endpoint.name  assay.value
1  O=c1[nH]c2c(c3ccccc13)COC(C1CCOCC1)C2 (racemic)           IC50      32.4 nM
2  O=c1[nH]c2c(c3ccccc13)CO[C@@H](C1CCCC1)C2 (single isomer, unassigned)           IC50        16 nM
3  CC(C)(C)C1Cc2[nH]c(=O)c3ccncc3c2CO1 (racemic)           IC50      84.9 nM

Reading of IC50 for Cn1ncc2c(=O)[nH]c3c(c21)COC(C(C)(C)C)C3 (racemic) with Tankyrase 1 (TNKS1) (Homo sapiens): 60.9 nM

---

These records show pIC50 for PARP1 (His6-PARP1, full length) (Homo sapiens, UniProt P09874).
Value format note: pIC50 is -log10 of concentration (mol/L); just state the number.

Some solved entries appear below for comparison.
> print(dat)
                                   compound  endpoint.name  assay.value
1  Cc1cccc2c(=O)[nH]c3c(c12)COC(C1CCN(C(=O)C2(C)CC2)CC1)C3 (racemic)          pIC50         7.59
2  CC(C)C1Cc2[nH]c(=O)c3ccc(C(N)=O)cc3c2CO1 (racemic)          pIC50         5.69
3  CC(C)(C)C1Cc2[nH]c(=O)c3ccccc3c2CO1 (racemic)          pIC50         6.75

Reading of pIC50 for Cc1cccc2c(=O)[nH]c3c(c12)COC(C1CCN(C(=O)C2CC2)CC1)C3 (racemic) with PARP1 (His6-PARP1, full length) (Homo sapiens, UniProt P09874): 7.28

---

Tested target: UniProt:P09874
Reported log10 of IC50 values for a set of compounds
Parameter value (number): base-10 log of IC50 in nM.

Some solved entries appear below for comparison.
> print(dat)
                                   compound  assay.value
1  CC(C)C1Cc2[nH]c(=O)c3ccncc3c2CO1 (racemic)         2.83
2  CC(C)C1Cc2[nH]c(=O)c3sccc3c2CO1 (racemic)         1.92

# compound O=c1[nH]c2c(c3ccccc13)COC(C1CCCC1)C2 (racemic) ; its log10 of IC50 = 2.08

# compound O=C(C1CC1)N1CCC(C2Cc3[nH]c(=O)c4ccccc4c3CO2)C1 (centres unmarked) ; its log10 of IC50 = 1.83

# compound CC(C)C1Cc2[nH]c(=O)c3ccc(N)cc3c2CO1 (racemic) ; its log10 of IC50 = 1.80

---

Tested target: PARP1 (His6-PARP1, full length) (Homo sapiens, UniProt P09874)
Sequence (P09874 whole entry, species assumed): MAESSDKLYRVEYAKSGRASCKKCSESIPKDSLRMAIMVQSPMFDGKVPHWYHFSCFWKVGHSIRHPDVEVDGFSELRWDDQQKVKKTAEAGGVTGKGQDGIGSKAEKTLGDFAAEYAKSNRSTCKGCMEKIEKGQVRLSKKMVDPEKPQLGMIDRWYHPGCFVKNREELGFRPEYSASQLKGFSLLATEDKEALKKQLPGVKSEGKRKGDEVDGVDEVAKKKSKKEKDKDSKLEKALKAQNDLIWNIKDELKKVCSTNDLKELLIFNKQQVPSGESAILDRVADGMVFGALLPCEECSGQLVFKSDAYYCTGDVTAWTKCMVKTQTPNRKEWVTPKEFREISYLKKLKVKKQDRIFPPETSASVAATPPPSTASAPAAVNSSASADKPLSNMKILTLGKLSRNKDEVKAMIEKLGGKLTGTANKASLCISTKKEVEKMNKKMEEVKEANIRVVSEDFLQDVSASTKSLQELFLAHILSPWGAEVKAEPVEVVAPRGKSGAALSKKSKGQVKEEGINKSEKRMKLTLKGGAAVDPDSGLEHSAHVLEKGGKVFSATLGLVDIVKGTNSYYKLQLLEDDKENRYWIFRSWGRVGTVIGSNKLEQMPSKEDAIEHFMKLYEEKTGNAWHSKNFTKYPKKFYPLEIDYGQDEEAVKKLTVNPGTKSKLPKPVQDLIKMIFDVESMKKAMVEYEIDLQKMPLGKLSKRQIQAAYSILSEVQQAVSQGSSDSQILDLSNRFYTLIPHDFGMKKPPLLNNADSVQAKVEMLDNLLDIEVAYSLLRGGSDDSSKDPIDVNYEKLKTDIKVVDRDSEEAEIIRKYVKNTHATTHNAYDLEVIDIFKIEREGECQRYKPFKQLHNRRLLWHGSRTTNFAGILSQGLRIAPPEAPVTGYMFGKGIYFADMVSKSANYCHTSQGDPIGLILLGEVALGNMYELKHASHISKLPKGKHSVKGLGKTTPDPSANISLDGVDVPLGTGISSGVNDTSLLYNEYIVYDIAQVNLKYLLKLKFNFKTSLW
Reported IC50 values for a set of molecules
Field: numeric (nM). Do not append units.

> print(dat)
                                   molecule  endpoint.name  unit.info  assay.value
1  Cc1cccc2c(=O)[nH]c3c(c12)COC(C(C)(C)CO)C3 (racemic)           IC50         nM         91.8

Reading of IC50 for CC(=O)N1CCC(C2Cc3[nH]c(=O)c4ccccc4c3CO2)CC1 (racemic) with PARP1 (His6-PARP1, full length) (Homo sapiens, UniProt P09874): 67.7

Reading of IC50 for O=c1[nH]c2c(c3ccccc13)COC(CCc1ccccc1)C2 (racemic) with PARP1 (His6-PARP1, full length) (Homo sapiens, UniProt P09874): 2670

---

These records show IC50 for PARP1 (His6-PARP1, full length) (Homo sapiens).
Field: numeric (µM). Do not append units.

> print(dat)
                                   molecule  unit.info  assay.value
1  CC1(C(=O)N2CCC(C3Cc4[nH]c(=O)c5ccccc5c4CO3)C2)CC1 (centres unmarked) [Compound I-45]         µM       0.0783

Reading of IC50 for COC(=O)c1ccc2c(=O)[nH]c3c(c2c1)COC(C(C)C)C3 (racemic) [Compound I-19] with PARP1 (His6-PARP1, full length) (Homo sapiens): 0.0735

Reading of IC50 for CC(C)C1Cc2[nH]c(=O)c3ccccc3c2CO1 (racemic) [Compound I-2] with PARP1 (His6-PARP1, full length) (Homo sapiens): 0.0343

---

Tested target: Tankyrase 1 (TNKS1) (Homo sapiens)
Sequence (O95271 1088-1327): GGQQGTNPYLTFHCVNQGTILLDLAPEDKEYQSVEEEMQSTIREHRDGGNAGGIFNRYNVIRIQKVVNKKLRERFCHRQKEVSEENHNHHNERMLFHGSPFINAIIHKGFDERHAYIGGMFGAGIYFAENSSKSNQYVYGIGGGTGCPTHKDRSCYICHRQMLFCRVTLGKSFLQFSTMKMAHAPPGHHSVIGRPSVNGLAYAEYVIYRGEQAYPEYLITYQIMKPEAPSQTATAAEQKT
Structures can show the parent of a compound that is named as a salt.
Reported pIC50 values for a set of molecules
Value format note: pIC50 is -log10 of concentration (mol/L); just state the number.

> print(dat)
                                   molecule                       tested.target  assay.value
1  CC(C)C1Cc2[nH]c(=O)c3ccc(N)cc3c2CO1 (racemic)  Tankyrase 1 (TNKS1) (Homo sapiens)         6.33
2  CC(C)OC(=O)N1CCC(C2Cc3[nH]c(=O)c4ccccc4c3CO2)CC1 (racemic)  Tankyrase 1 (TNKS1) (Homo sapiens)         7.51

Reading of pIC50 for CC(C)C1Cc2[nH]c(=O)c3ccc([N+](=O)[O-])cc3c2CO1 (racemic) with Tankyrase 1 (TNKS1) (Homo sapiens): 6.39

Reading of pIC50 for O=c1[nH]c2c(c3ccccc13)COC(C1CCNCC1)C2 (racemic) [Compound I-22, trifluoroacetate] with Tankyrase 1 (TNKS1) (Homo sapiens): 7.05

Reading of pIC50 for CC(C)C1Cc2[nH]c(=O)c3ccsc3c2CO1 (racemic) with Tankyrase 1 (TNKS1) (Homo sapiens): 7.09

Reading of pIC50 for O=C(C1CC1)N1CCC(C2Cc3[nH]c(=O)c4ccccc4c3CO2)C1 (stereo not shown) with Tankyrase 1 (TNKS1) (Homo sapiens): 7.37

Reading of pIC50 for O=c1[nH]c2c(c3ccccc13)COC(C1CCNC1)C2 (stereo not shown) [Compound I-36, hydrochloride] with Tankyrase 1 (TNKS1) (Homo sapiens): 6.77

Cited source for all entries: patent US20140121231A1
